Target: HLA-A*31:01
Experiment: IEDB peptide-MHC binding, purified MHC/direct/fluorescence; filed as Kd, often an IC50 or EC50 that approximates it; bounds were set here for any values at or beyond the usual limits of such assays
Settings: source organism: Mycobacterium tuberculosis variant bovis BCG str. Pasteur 1173P2
parameter_measured: Kd

Give the value of Kd reported for the following: `HPTSRRELL`
≥ 20 µM

* * *

Target: HLA-A*02:11
Experiment: IEDB peptide-MHC binding, purified MHC/direct/fluorescence; filed as Kd, often an IC50 or EC50 that approximates it; bounds were set here for any values at or beyond the usual limits of such assays
Conditions: source organism: Zaire ebolavirus
parameter_measured: Kd

Here are 2 sequences together with their reported answers.
{"columns": ["seq", "measured_on", "Kd"],
 "data": [
  ["WQQWDRQSL", "HLA-A*02:11", "≥ 20 µM"],
  ["TTEANAGQF", "HLA-A*02:11", "≥ 20 µM"]
]}

Report value only: Kd, HLA-A*02:11, `DETFVHSGF`
≥ 20 µM

* * *

Biological target: HLA-A*02:06
Experiment: IEDB peptide-MHC binding, purified MHC/competitive/radioactivity; filed as Kd, often an IC50 or EC50 that approximates it; bounds were set here for any values at or beyond the usual limits of such assays
Settings: source organism: Vaccinia virus WR
pKd: −log10 of the molar value.
So basically: pKd at 6 or higher? That is T. Lower than 6? That is F.

Study these solved cases before continuing.
{"columns": ["seq", "classification"],
 "data": [
  ["IAVFDSKLI", "F"],
  ["ELIDVLKTRL", "F"],
  ["FAISYCRAFI", "T"]
]}

Answer whether pKd of `TAIRAGYSIV` is greater than or equal to 6.
F

Is reported pKd greater than or equal to 6 here: `KIMEIVSHL`
T

Entry `SLTIKDSSNK` : is its pKd no less than 6?
F

Is the recorded value of pKd equal to or greater than 6 for this sequence? `EIMDKEQLL`
F

// inclusive: pKd at least 6? input: `GINNVQSLI`
F

Could you please find out whether `KINEMVDEL` has pKd that meets 6 or exceeds it?
T

Could you verify whether the entry `KLLSTSNVIT` shows pKd of no less than 6?
F

* * *

Molecular target: HLA-A*11:01
Experiment: IEDB peptide-MHC binding, purified MHC/competitive/fluorescence; filed as Kd, often an IC50 or EC50 that approximates it; bounds were set here for any values at or beyond the usual limits of such assays
Settings: source organism: Giardia lamblia ATCC 50803
parameter_measured: Kd (nM)
Expressed in nM, but write only the number.

Look up Kd of `MTFPLHFRS` and report it.
113

* * *

Target: HLA-A*02:01
Experiment: IEDB peptide-MHC binding, purified MHC/competitive/radioactivity; filed as Kd, often an IC50 or EC50 that approximates it; bounds were set here for any values at or beyond the usual limits of such assays
Conditions: source organism: Dengue virus 3 China/80-2/1980
Collected pKd values appear next to each entry.
Remember the convention: pKd equals -log10 of concentration in molar.

Observe how each entry below is paired with its result.
{"columns": ["seq", "measured_on", "pKd"],
 "data": [
  ["GIMTIDLDPV", "HLA-A*02:01", 7.93],
  ["YMGEDGCWYG", "HLA-A*02:01", 6.68],
  ["LMSGKDVFYL", "HLA-A*02:01", 8.32]
]}

In one line, give reported pKd of the entry `VMLLVLCAV` .
7.83

These data points were gathered from the Immune Epitope Database (IEDB).
